- Measured on: T1, orthogonal hCD122 receptor (hoRb), hCD122 with H133D and Y134F (human, UniProt P14784 27-550)
- T1 sequence: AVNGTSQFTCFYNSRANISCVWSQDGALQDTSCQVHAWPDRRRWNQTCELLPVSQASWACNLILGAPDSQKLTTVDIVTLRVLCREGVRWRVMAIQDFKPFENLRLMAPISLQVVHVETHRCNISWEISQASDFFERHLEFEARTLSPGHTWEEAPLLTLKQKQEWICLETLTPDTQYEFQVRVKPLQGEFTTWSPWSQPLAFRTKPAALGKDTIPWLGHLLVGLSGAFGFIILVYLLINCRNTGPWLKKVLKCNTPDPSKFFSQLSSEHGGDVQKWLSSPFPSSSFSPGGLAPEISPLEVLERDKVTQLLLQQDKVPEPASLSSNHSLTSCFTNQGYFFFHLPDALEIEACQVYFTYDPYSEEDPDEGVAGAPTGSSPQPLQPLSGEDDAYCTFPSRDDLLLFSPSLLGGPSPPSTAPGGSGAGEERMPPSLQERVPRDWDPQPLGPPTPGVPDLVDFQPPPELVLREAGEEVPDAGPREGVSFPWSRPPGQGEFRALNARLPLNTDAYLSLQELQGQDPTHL
- Method summary: cell-based or functional assay; further: reference of the scale not given here
Measured metric: Relative Proliferation Fold Change NKL 1:2 (fold)

>>> numeric_value("Q74N, SQVLKA (ligand) APTSSSTKKTQLQLSQLLVLLKAILNGINNYKNPKLTRMLTFKFYMPKKATELKHLQCLEEELKPLEEVLNLANSKNFHLRPRDLISNINVIVLELKGSETTFMCEYADETATIVEFLNRWITFCQSIISTLT")
4.23

[1] C125A, SQVLKA (ligand) APTSSSTKKTQLQLSQLLVLLKAILNGINNYKNPKLTRMLTFKFYMPKKATELKHLQCLEEELKPLEEVLNLAQSKNFHLRPRDLISNINVIVLELKGSETTFMCEYADETATIVEFLNRWITFAQSIISTLT
[2] SQVLTA (ligand) APTSSSTKKTQLQLSQLLVLLTAILNGINNYKNPKLTRMLTFKFYMPKKATELKHLQCLEEELKPLEEVLNLAQSKNFHLRPRDLISNINVIVLELKGSETTFMCEYADETATIVEFLNRWITFCQSIISTLT
[3] L18E, SQVLKA (ligand) APTSSSTKKTQLQLSQLEVLLKAILNGINNYKNPKLTRMLTFKFYMPKKATELKHLQCLEEELKPLEEVLNLAQSKNFHLRPRDLISNINVIVLELKGSETTFMCEYADETATIVEFLNRWITFCQSIISTLT
[4] L18W, SQVLKA (ligand) APTSSSTKKTQLQLSQLWVLLKAILNGINNYKNPKLTRMLTFKFYMPKKATELKHLQCLEEELKPLEEVLNLAQSKNFHLRPRDLISNINVIVLELKGSETTFMCEYADETATIVEFLNRWITFCQSIISTLT
**Query** List from greatest to least Relative Proliferation Fold Change NKL 1:2. Give the order by naming the labels one after another as requested.
**Result** 1, 2, 4, 3
